# measurement-notes: NCI Yeast Anticancer Drug Screen. Data for the mgt1 strain (AID 153)
# protocol-conditions: S. cerevisiae mgt1 mutant growth inhibition; at 100.0 µM; stronger effect = higher value
The panel holds about 79,000 compounds, 15% with a hit somewhere; the sample as a whole holds those more often.
quantity-measured: growth inhibition (%)

• CC(=O)Nc1ccc2c(c1)-c1ccccc1C2=O = 76
• NC(=S)NC(=S)Nc1ccccc1 = 80
• COc1c(O)c(C=O)c(Br)c(C=O)c1O = 82
• CCCCCCCCCCCCCCCCOP(=O)(O)OCC(N)C(=O)O (centres undefined) = 97
• Clc1ccc2c(c1)N(CCCN1CCCC13CCCCC3)c1ccccc1S2 = -2
• Oc1cccc2cc(Cl)cnc12 = 98
• CCCCc1ccc(-n2c(C)c(COC(=O)NC)c(COC(=O)NC)c2C)cc1 = 94
• CCOc1ccc(NC(=O)C2=C(C)NC(C)=C(C(=O)Nc3ccc(OCC)cc3)C2c2cccc([N+](=O)[O-])c2)cc1 = 92
• CCN(CC)CCN(C)CCc1ccc(Br)cc1 = 96
• CSc1nc(C)c(CCOC(C)=O)c(N=P(c2ccccc2)(c2ccccc2)c2ccccc2)n1 = 90
• COc1cc([C@@H]2c3cc4c(cc3[C@H](OC3OC5COC(C(C)C)OC5C(O)C3O)C3COC(=O)[C@@H]32)OCO4)cc(OC)c1O (some centres undefined) = 22
• O=C1C=C(Cl)C(=O)N1c1cccc(Cl)c1 = 100
• CC1CC(C)(C)CC(OCCN2CCCCC2)(c2ccccc2)C1 (centres undefined) = 83
• O=C(/C=C(/c1ccccc1)N1CCCCC1)c1ccccc1 = 87
• CCC(C)OC(=O)Nc1ccc(C)c(NC(=O)OC(C)CC)c1 (centres undefined) = 96
• O=[N+]([O-])c1cc(S(=O)(=O)Nc2ccccc2)ccc1Nc1ccccc1 = 82
• CN(C)[C@@H]1C(=O)C(C(N)=O)=C(O)[C@@]2(O)C(=O)C3=C(O)c4c(O)cccc4C[C@H]3C[C@@H]12 = 99
• Nc1ncc(-c2ccc(Br)cc2)s1 = 98
• CCCCCCCCCCCC1=NCCO1 = 99
• Cc1ccc2c(c1)C1(SC(C)C(=O)N1c1ccc(Cl)cc1)C(=O)N2 (centres undefined) = 99
• CC[N+](CC)(CC)c1ccccc1 = -8
• COc1ccc(NC(=O)CC2SC(=Nc3ccccc3C)NC2=O)c([N+](=O)[O-])c1 (centres undefined) = 99
• CCc1ccc2c(c1)N(CC(C)CN(C)C)c1ccccc1S2 (centres undefined) = 76
• CC1CC[C@]2(C(=O)O)CCC3(C)C(=CC(=O)C4[C@@]5(C)CCC(=O)C(C)(C)C5CC[C@]43C)[C@@H]2[C@H]1C (some centres undefined) = 97
• Cc1cc(NCCCCCCCCNc2cc(C)nc3cc(N)ccc23)c2ccc(N)cc2n1 = 95
• COc1oc(C(=O)NC2CCCCC2)c(-c2ccc(Cl)cc2)c1S(=O)(=O)c1ccccc1 = 86
• COc1cccc2c1C(=O)c1c(O)c3c(c(O)c1C2=O)C[C@@](O)(C(C)=O)C[C@@H]3OC1CC(OC(C)=O)C(OC(C)=O)C(C)O1 (some centres undefined) = -11
• O=C(CC(C(=O)O)N1CCOCC1)c1ccccc1 (centres undefined) = 65
• CCCCCOC(=S)SC(=O)OCC = 92
• Nc1ccc(F)cc1S = 98
• Cc1nc2c(Br)cc(Br)cc2c(=O)n1-c1ccccc1NC1OCC(O)C(O)C1O (centres undefined) = 97
• CN(C)CCNC(=O)c1cccc2cc([N+](=O)[O-])ccc12 = 92
• CC(/C=C/c1ccccc1)=N\NC(N)=S = 52
• CN(C)CCNc1ccc2ncnc3c2c1C(=O)c1ccccc1-3 = 38
• O=[N+]([O-])c1ccc2c(c1)/C(=N/N=C1c3ccccc3Cc3ccccc31)c1cc([N+](=O)[O-])cc([N+](=O)[O-])c1-2 = 93
• CC(C)(C)C1=CC(=CC=C2C=CN(CCCCCCCCCCCO)C=C2)C=C(C(C)(C)C)C1=O = 99
• Cc1cc(C(C)(C)C)c(OCCCN2CCOCC2)c(C(C)(C)C)c1 = 99
• OC(/C=C/c1ccccc1)(Cc1cc(-c2ccccc2)n[nH]1)c1ccccc1 (centres undefined) = 13
• CCCOC(=O)C(F)C(Br)C(=O)OCCC (centres undefined) = 99
• O=[N+]([O-])c1cc(Cl)cnc1Br = 19
• Cc1cc(C)c(NC(=S)NC(=O)c2ccccc2)cc1C = 37
• CC(C)C(C)/C=C\C(C)C1CCC2C3=CC=C4CC(O)CCC4(C)C3CCC21C (centres undefined) = -4
• Nc1ccc2c(c1)C(=O)c1ccc(F)cc1-2 = 19
• COc1ccc(/C=C/c2sc3ccccc3[n+]2CCCCI)cc1OC = 98
